MIC values, listed per item
Tested on: Staphylococcus aureus
procedure.text: Antibacterial activity against Staphylococcus aureus 209P incubated at room temperature for 30 mins followed by incubation at 37 degC for 12 hrs by two-fold dilution method
Assay type: functional
The reply should be a number in µg/mL, with the unit left off.

Below, 7 molecules whose answers are already recorded.
Assign MIC to the following record: CO[C@@H]1[C@H](O)[C@@H](C)O[C@@H](OC[C@H]2/C=C/C=C/C(=O)[C@@](C)(O)C[C@H](C)[C@H](O[C@@H]3O[C@H](C)C[C@](O)([C@H](C)O)[C@H]3O)[C@@H](C)/C=C/C(=O)O[C@@H]2C)[C@@H]1OC
16

Quote MIC reported for CO[C@@H]1[C@H](O)[C@@H](C)O[C@@H](OC[C@H]2/C=C/CCC(=O)[C@@](C)(O)C[C@H](C)[C@H](O[C@@H]3O[C@H](C)C[C@](O)([C@H](C)O)[C@H]3O)[C@@H](C)/C=C/C(=O)O[C@@H]2C)[C@@H]1OC please.
32

// Input: CO[C@@H]1[C@H](O)[C@@H](C)O[C@@H](OC[C@H]2/C=C/C=C/C(=O)[C@H](C)C[C@H](C)[C@H](O[C@@H]3O[C@H](C)C[C@](O)([C@H](C)O)[C@H]3O)[C@@H](C)/C=C/C(=O)O[C@@H]2C)[C@@H]1OC . Output its MIC only.
125

Supply measured MIC of CO[C@@H]1[C@H](O)[C@@H](C)O[C@@H](OC[C@H]2/C=C/CCC(=O)[C@H](C)C[C@H](C)[C@H](O[C@@H]3O[C@H](C)C[C@@]4(OC(=O)O[C@H]4C)[C@H]3O)[C@@H](C)/C=C/C(=O)O[C@@H]2C)[C@@H]1OC in your reply.
32

Find the measured MIC of CO[C@@H]1[C@H](O)[C@@H](C)O[C@@H](OC[C@H]2/C=C/CCC(=O)[C@H](C)C[C@H](C)[C@H](O[C@@H]3O[C@H](C)C[C@](O)([C@H](C)O)[C@H]3O)[C@@H](C)/C=C/C(=O)O[C@@H]2C)[C@@H]1OC and report it.
500

Return the recorded MIC value; entry: CO[C@@H]1[C@H](O)[C@@H](C)O[C@@H](OC[C@H]2[C@@H]3O[C@H]3/C=C/C(=O)[C@@](C)(O)C[C@H](C)[C@H](O[C@@H]3O[C@H](C)C[C@H](OC)[C@H]3O)[C@@H](C)/C=C/C(=O)O[C@@H]2C)[C@@H]1OC
4

State its MIC for this molecule: CO[C@@H]1[C@H](O)[C@@H](C)O[C@@H](OC[C@H]2[C@@H]3O[C@H]3CCC(=O)[C@@](C)(O)C[C@H](C)[C@H](O[C@@H]3O[C@H](C)C[C@](O)([C@H](C)O)[C@H]3O)[C@@H](C)/C=C/C(=O)O[C@@H]2C)[C@@H]1OC
500

New cases:
Look up MIC of NC[C@H]1O[C@H](O[C@H]2[C@H](O)[C@@H](O[C@H]3O[C@H](CO)[C@@H](O)[C@H](N)[C@H]3O)[C@H](N)C[C@@H]2N)[C@H](N)C[C@@H]1O [TOBRAMYCIN] and report it.
0.2

* * *

Property: MIC; scope: individual molecules
Test system: Candida albicans
procedure.text: Antifungal activity against Candida albicans FIM709 incubated at room temperature for 30 mins followed by incubation at 32 degC for 12 hrs by two-fold dilution method
Assay type: functional

Check out these entries, answers already filled in.
Identify MIC associated with the molecule CO[C@@H]1[C@H](O)[C@@H](C)O[C@@H](OC[C@H]2/C=C/C=C/C(=O)[C@H](C)C[C@H](C)[C@H](O[C@@H]3O[C@H](C)C[C@](O)([C@H](C)O)[C@H]3O)[C@@H](C)/C=C/C(=O)O[C@@H]2C)[C@@H]1OC
> 1000 µg/mL

Report MIC for CO[C@@H]1[C@H](O)[C@@H](C)O[C@@H](OC[C@H]2/C=C/CCC(=O)[C@H](C)C[C@H](C)[C@H](O[C@@H]3O[C@H](C)C[C@@]4(OC(=O)O[C@H]4C)[C@H]3O)[C@@H](C)/C=C/C(=O)O[C@@H]2C)[C@@H]1OC
> 500 µg/mL

Recall and state the measured MIC for CO[C@@H]1[C@H](O)[C@@H](C)O[C@@H](OC[C@H]2[C@@H]3O[C@H]3CCC(=O)[C@H](C)C[C@H](C)[C@H](O[C@@H]3O[C@H](C)C[C@](O)([C@H](C)O)[C@H]3O)[C@@H](C)/C=C/C(=O)O[C@@H]2C)[C@@H]1OC .
> 1000 µg/mL

# input for lookup
Provide only the value of recorded MIC for CO[C@@H]1[C@H](O)[C@@H](C)O[C@@H](OC[C@H]2/C=C/C=C/C(=O)[C@@](C)(O)C[C@H](C)[C@H](O[C@@H]3O[C@H](C)C[C@](O)([C@H](C)O)[C@H]3O)[C@@H](C)/C=C/C(=O)O[C@@H]2C)[C@@H]1OC
> 500 µg/mL

* * *

The entries below are paired with their reported MIC.
System: Candida albicans
procedure.text: Antifungal activity against Candida albicans FIM709 incubated at room temperature for 30 mins followed by incubation at 32 degC for 12 hrs by two-fold dilution method
Type: functional

Recorded results for 2 molecules are shown here.
Specify reported MIC for the molecule shown: CO[C@@H]1[C@H](O)[C@@H](C)O[C@@H](OC[C@H]2/C=C/CCC(=O)[C@@](C)(O)C[C@H](C)[C@H](O[C@@H]3O[C@H](C)C[C@](O)([C@H](C)O)[C@H]3O)[C@@H](C)/C=C/C(=O)O[C@@H]2C)[C@@H]1OC
> 500 mg/L

Quickly give me recorded MIC for CO[C@@H]1[C@H](O)[C@@H](C)O[C@@H](OC[C@H]2[C@@H]3O[C@H]3/C=C/C(=O)[C@@](C)(O)C[C@H](C)[C@H](O[C@@H]3O[C@H](C)C[C@H](OC)[C@H]3O)[C@@H](C)/C=C/C(=O)O[C@@H]2C)[C@@H]1OC
> 500 mg/L

---
Specify MIC for CO[C@@H]1[C@H](O)[C@@H](C)O[C@@H](OC[C@H]2/C=C/CCC(=O)[C@H](C)C[C@H](C)[C@H](O[C@@H]3O[C@H](C)C[C@](O)([C@H](C)O)[C@H]3O)[C@@H](C)/C=C/C(=O)O[C@@H]2C)[C@@H]1OC and stop.
> 500 mg/L

Annotate the molecule CO[C@@H]1[C@H](O)[C@@H](C)O[C@@H](OC[C@H]2[C@@H]3O[C@H]3CCC(=O)[C@@](C)(O)C[C@H](C)[C@H](O[C@@H]3O[C@H](C)C[C@](O)([C@H](C)O)[C@H]3O)[C@@H](C)/C=C/C(=O)O[C@@H]2C)[C@@H]1OC with its measured MIC.
> 1000 mg/L

Answer with the recorded MIC for the molecule listed here: C[C@@H]1C[C@@H]([C@H](O)CC2CC(=O)NC(=O)C2)C(=O)[C@@H](C)C1 [CYCLOHEXIMIDE]
64 mg/L
